Test system: AGS gastric carcinoma cells [heterozygous G12D]
experimental-protocol: Cancer cell line proliferation (CellTiter-Glo), AGS
Format: cell-based
experimental-conditions: Homo sapiens, 72 hr treatment, read-out: AGS CTG (EC50)
measured-metric: EC50

The following compounds each have a reported value; give each one's EC50.
1. CC(C)c1cc(-c2nnc(C(=O)NC(C)C(F)(F)F)n2-c2ccc(CN3CCN([C@H]4C[C@@H](COc5nc(N6CC7CCC(C6)N7)c6cnc(-c7ccccc7C(F)(F)F)c(F)c6n5)N(C)C4)CC3)cc2)c(O)cc1O (stereo partly shown)
2. CCc1cc(-c2nnc(C(=O)NCC(F)(F)F)n2-c2ccc(CN3CCN([C@H]4C[C@@H](COc5nc(N6CC7CCC(C6)N7)c6cnc(-c7cccc8cccc(OC)c78)c(F)c6n5)N(C)C4)CC3)cc2)c(O)cc1O
3. C#Cc1c(F)ccc2cc(O)cc(-c3ncc4c(N5CC6CCC(C5)N6)nc(OCC5(CN6CCC(N7CCN(Cc8ccc9c(c8)CN(C(=O)c8cc(C(C)C)c(OC)cc8OC)C9)CC7)CC6)CC5)nc4c3F)c12
4. CC(C)c1cc(-c2nnc(O)n2-c2ccc(CN3CCC(C(=O)C4CCN([C@H]5C[C@@H](COc6nc(N7CC8CCC(C7)N8)c7cnc(-c8cc(O)cc9ccccc89)c(F)c7n6)N(C)C5)CC4)CC3)cc2)c(O)cc1O

100 to 1000 nM
100 to 1000 nM
< 100 nM
100 to 1000 nM
